Numbers sourced from paper PMC5500575.

Assay System: human histamine H3 receptor (Homo sapiens)
Construct: expressed in transfected cells; host or cells: tsA201 cells (transformed HEK-293), transient transfection
Sequence (Q9Y5N1 whole entry): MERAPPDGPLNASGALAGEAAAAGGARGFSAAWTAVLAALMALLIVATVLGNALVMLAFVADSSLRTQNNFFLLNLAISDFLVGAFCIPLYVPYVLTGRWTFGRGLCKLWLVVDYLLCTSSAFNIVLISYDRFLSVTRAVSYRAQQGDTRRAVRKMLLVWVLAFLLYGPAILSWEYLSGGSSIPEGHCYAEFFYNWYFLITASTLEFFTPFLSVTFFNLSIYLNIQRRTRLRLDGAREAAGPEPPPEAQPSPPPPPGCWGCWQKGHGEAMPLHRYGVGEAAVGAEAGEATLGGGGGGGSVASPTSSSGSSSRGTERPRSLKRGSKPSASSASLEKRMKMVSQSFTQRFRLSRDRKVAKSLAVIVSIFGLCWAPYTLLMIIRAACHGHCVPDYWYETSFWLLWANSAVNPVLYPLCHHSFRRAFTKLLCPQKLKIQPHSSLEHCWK
Test Protocol: IP-One (HTRF IP1 accumulation) assay, H3 receptor co-expressed with chimeric Gqi5 in tsA201 cells
Assay type: cell-based
Conditions: antagonist mode, 20 µM compound, EC80 histamine
Parameter Measured: Result of first pharmacological assaying (pharmacophore screening hits)

Examples with answers:
Cc1ccc2c(c1)c1c3n2CCN(CC(O)CNCc2ccccc2)C3CCC1 (stereo not drawn) : antagonist hits
Cc1nc(N2CCN(c3ncc[nH]c3=O)CC2)c2sccc2n1 : antagonist hits
CCCCN1CN(CCCN2CCCCC2)Cn2c1nc1ccccc12 : antagonist hits
CCN(Cc1nc2ccccc2[nH]1)CC1CCCN(CCc2cccc(OC)c2)C1 (stereo not drawn) : seemingly active

Prompt: Provide one value: measured Result of first pharmacological assaying (pharmacophore screening hits) of "Cc1ccc(CN2CCCN(C(=O)CCSCc3cn4ccccc4n3)CC2)cc1"
Response: seemingly active
